Hello, the source for this data is ChEMBL document CHEMBL4689842, in case you need it.

Test system: HEK-293T
test: Multiplex assay against HEK293T
Format: toxicity, cell-based
experimentalParameters: human, 12 h, 10 µM, compound concentration 10 uM, replicate 2
# Population Normal (%) >= 90% gives yes (1), anything below gives no (0)

compound	target	group
CN1CCN(c2ccc(OC(F)(F)F)c(Nc3ncc4c(n3)-c3c(c(C(N)=O)nn3CCO)CC4)c2)CC1	HEK-293T	yes (1)
CN(C)C(=O)N[C@H]1CC[C@H](CCN2CCN(c3cccc(Cl)c3Cl)CC2)CC1.Cl [CARIPRAZINE HYDROCHLORIDE]	HEK-293T	yes (1)
CNc1nc(NCc2ccc(NS(C)(=O)=O)cc2Cl)cc(-c2ccccn2)n1	HEK-293T	yes (1)
Cc1nc(-c2cn3c(n2)-c2ccc(-c4cnn(C(C)(C)C(N)=O)c4)cc2OCC3)n(C(C)C)n1	HEK-293T	yes (1)
c1cn2cc(-c3ccc4cn[nH]c4c3)nc(Nc3ccc(N4CCOCC4)cc3)c2n1	HEK-293T	no (0)
COc1cc2nccc(Oc3ccc(NC(=O)Nc4cc(C)on4)c(Cl)c3)c2cc1OC.O	HEK-293T	yes (1)
CCN(CC)CCCCNc1ncc2cc(-c3cc(OC)cc(OC)c3)c(NC(=O)NC(C)(C)C)nc2n1	HEK-293T	no (0)

* * *

System: U2OS
test: Multiplex assay against U2OS
Assay type: toxicity, cell-based
experimentalParameters: human, 24 h, 10 µM, compound concentration 10 uM, replicate 2
endpointName: Total Cell Count

compound	endpointName	measValue
COc1cccc([C@@H](C)NCCCc2ccccc2Cl)c1.Cl [TECALCET HYDROCHLORIDE]	Total Cell Count	97
Cn1cc(-c2[nH]c3cc(NC(=O)[C@H](N)C4CCCCC4)cc4c3c2C=NNC4=O)cn1	Total Cell Count	106
COc1cc2nccc(Oc3ccc(NC(=O)Nc4cc(C)on4)c(Cl)c3)c2cc1OC.O	Total Cell Count	58
COc1cc(-n2cnc3cc(-c4ccc(Cl)cc4)sc3c2=O)ccc1OCCN1CCCC1	Total Cell Count	74
CCN(CC)CCCCNc1ncc2cc(-c3cc(OC)cc(OC)c3)c(NC(=O)NC(C)(C)C)nc2n1	Total Cell Count	113
OC1(c2ccc(Cl)cc2)CCN(Cc2c[nH]c3ccccc23)CC1	Total Cell Count	85
CC(C)NCC(O)COc1ccc(CCOCC2CC2)cc1.Cl (configuration not stated) [BETAXOLOL HYDROCHLORIDE]	Total Cell Count	106
C=CC(=O)Nc1cc2c(Nc3ccc(F)c(Cl)c3)ncnc2cc1OCCCN1CCOCC1.Cl.Cl [CANERTINIB DIHYDROCHLORIDE]	Total Cell Count	135
Cc1cc(C)cc(-c2cnc3cc(Cl)c(-c4cccc(O)c4)cc3c2OCCCN)c1	Total Cell Count	63
CC[C@H](C)C(=O)O[C@H]1C[C@@H](C)C=C2C=C[C@H](C)[C@H](CC[C@@H]3C[C@@H](O)CC(=O)O3)[C@H]21	Total Cell Count	74
CN(C)C(=O)/C(C#N)=C/c1ccc(-c2nc3cnc4[nH]ccc4c3n2C2CCCCC2)o1	Total Cell Count	125
COc1ncc(-c2ccc3nccc(-c4ccnnc4)c3c2)cc1NS(=O)(=O)c1ccc(F)cc1F	Total Cell Count	81
CN1CCN(CCOc2cc(OC3CCOCC3)c3c(Nc4c(Cl)ccc5c4OCO5)ncnc3c2)CC1	Total Cell Count	70
CN(C)C(=O)N[C@H]1CC[C@H](CCN2CCN(c3cccc(Cl)c3Cl)CC2)CC1.Cl [CARIPRAZINE HYDROCHLORIDE]	Total Cell Count	87
CN1CCCC(n2nc(Cc3ccc(Cl)cc3)c3ccccc3c2=O)CC1.Cl (configuration not stated) [AZELASTINE HYDROCHLORIDE]	Total Cell Count	96
C[C@@H](NCCCc1cccc(C(F)(F)F)c1)c1cccc2ccccc12.Cl [CINACALCET HYDROCHLORIDE]	Total Cell Count	69
c1cn2cc(-c3ccc4cn[nH]c4c3)nc(Nc3ccc(N4CCOCC4)cc3)c2n1	Total Cell Count	65
Cc1[nH]c(/C=C2\C(=O)Nc3ccc(S(=O)(=O)N(C)c4cccc(Cl)c4)cc32)c(C)c1C(=O)N1CCN(C)CC1	Total Cell Count	71
O=C1NCN(c2ccccc2)C12CCN(CCCOc1ccc(F)cc1)CC2 [SPIRAMIDE]	Total Cell Count	118
O=C(NCCCC1CCCCC1)c1ccc(CNC(=O)c2cnn(-c3ccccc3)c2C(F)(F)F)cc1	Total Cell Count	124 [middle of 4 runs]
Cc1nc(Nc2n[nH]c3c2CN(C(=O)N[C@H](CN(C)C)c2ccccc2)C3(C)C)c2sccc2n1	Total Cell Count	121
CN1CCN(c2ccc(OC(F)(F)F)c(Nc3ncc4c(n3)-c3c(c(C(N)=O)nn3CCO)CC4)c2)CC1	Total Cell Count	55
Cc1nc(-c2cn3c(n2)-c2ccc(-c4cnn(C(C)(C)C(N)=O)c4)cc2OCC3)n(C(C)C)n1	Total Cell Count	67
Cc1csc2c(N[C@@H](C)CN3CCN(S(=O)(=O)c4ccc(Cl)c(Cl)c4)CC3)ncnc12	Total Cell Count	72
CNc1nc(NCc2ccc(NS(C)(=O)=O)cc2Cl)cc(-c2ccccn2)n1	Total Cell Count	71
CC(C)(O)CNc1ncc(-c2ccnc(Nc3ccnc(Cl)c3)n2)c(CC2CC2)n1	Total Cell Count	105
Cc1nc(-c2ccc(-c3ccc(C(=O)N4CCc5cc6c(cc54)C4(CCN(C)CC4)CO6)cc3)c(C)c2)no1	Total Cell Count	63
CN(C)CC#Cc1ccc(OCCCc2sc(N3CCc4cccc(C(=O)Nc5nc6ccccc6s5)c4C3)nc2C(=O)O)c(F)c1	Total Cell Count	135
CN1CCC[C@@H]1CCO[C@](C)(c1ccccc1)c1ccc(Cl)cc1.O=C(O)/C=C/C(=O)O [CLEMASTINE FUMARATE]	Total Cell Count	47
Cc1c(-c2ccc(O)cc2)n(Cc2ccc(OCCN3CCCCCC3)cc2)c2ccc(O)cc12	Total Cell Count	50
C=CC(=O)Nc1cccc(C(=O)Nc2ccc(Nc3cc(-c4[nH]c(SC)nc4C)ccn3)cc2)c1	Total Cell Count	95
Cl.N#Cc1ccc2[nH]cc(CCCCN3CCN(c4ccc5oc(C(N)=O)cc5c4)CC3)c2c1 [VILAZODONE HYDROCHLORIDE]	Total Cell Count	79

* * *

Test system: U2OS
test: Multiplex assay against U2OS
Format: toxicity, cell-based
experimentalParameters: human, 48 h, 10 µM, compound concentration 10 uM, replicate 1
Readings of Total Cell Count for the listed compounds

compound	Total Cell Count
CN1CCN(c2ccc(OC(F)(F)F)c(Nc3ncc4c(n3)-c3c(c(C(N)=O)nn3CCO)CC4)c2)CC1	153
COc1cc(-n2cnc3cc(-c4ccc(Cl)cc4)sc3c2=O)ccc1OCCN1CCCC1	189
C=CC(=O)Nc1cccc(C(=O)Nc2ccc(Nc3cc(-c4[nH]c(SC)nc4C)ccn3)cc2)c1	316
COc1ncc(-c2ccc3nccc(-c4ccnnc4)c3c2)cc1NS(=O)(=O)c1ccc(F)cc1F	181
CN(C)C(=O)N[C@H]1CC[C@H](CCN2CCN(c3cccc(Cl)c3Cl)CC2)CC1.Cl [CARIPRAZINE HYDROCHLORIDE]	101
CC[C@H](C)C(=O)O[C@H]1C[C@@H](C)C=C2C=C[C@H](C)[C@H](CC[C@@H]3C[C@@H](O)CC(=O)O3)[C@H]21	300
CN1CCC[C@@H]1CCO[C@](C)(c1ccccc1)c1ccc(Cl)cc1.O=C(O)/C=C/C(=O)O [CLEMASTINE FUMARATE]	117
COc1cc2nccc(Oc3ccc(NC(=O)Nc4cc(C)on4)c(Cl)c3)c2cc1OC.O	153
Cc1csc2c(N[C@@H](C)CN3CCN(S(=O)(=O)c4ccc(Cl)c(Cl)c4)CC3)ncnc12	159
CCOCCn1cc(C(=O)Nc2ccc(-n3nc(-c4cccnc4)cc3C(F)(F)F)cn2)ccc1=O	178
Cc1[nH]c(/C=C2\C(=O)Nc3ccc(S(=O)(=O)N(C)c4cccc(Cl)c4)cc32)c(C)c1C(=O)N1CCN(C)CC1	186
CC(C)NCC(O)COc1ccc(CCOCC2CC2)cc1.Cl (centres undefined) [BETAXOLOL HYDROCHLORIDE]	200
Cc1cc(C)cc(-c2cnc3cc(Cl)c(-c4cccc(O)c4)cc3c2OCCCN)c1	270
CNc1nc(NCc2ccc(NS(C)(=O)=O)cc2Cl)cc(-c2ccccn2)n1	165

* * *

Tested on: Fibroblast
test: Multiplex assay against human fibroblast
Type: toxicity, cell-based
experimentalParameters: 48 h, 1 µM, compound concentration 1 uM, replicate 2
endpointName: Population Hoechst High Intensity Objects (%)

compound	unitSymbol	measValue
CN(C)C(=O)N[C@H]1CC[C@H](CCN2CCN(c3cccc(Cl)c3Cl)CC2)CC1.Cl [CARIPRAZINE HYDROCHLORIDE]	%	11
CN1CCN(CCOc2cc(OC3CCOCC3)c3c(Nc4c(Cl)ccc5c4OCO5)ncnc3c2)CC1 [SARACATINIB]	%	41
COc1ncc(-c2ccc3nccc(-c4ccnnc4)c3c2)cc1NS(=O)(=O)c1ccc(F)cc1F [OMIPALISIB]	%	13
Cc1nc(-c2ccc(-c3ccc(C(=O)N4CCc5cc6c(cc54)C4(CCN(C)CC4)CO6)cc3)c(C)c2)no1 [SB-224289]	%	27
